Molecular target: human Nav1.6 (hNav1.6) (Homo sapiens)
Construct: expressed in transfected cells; host or cells: HEK-293 (G418 selection)
Sequence (Q9UQD0 whole entry): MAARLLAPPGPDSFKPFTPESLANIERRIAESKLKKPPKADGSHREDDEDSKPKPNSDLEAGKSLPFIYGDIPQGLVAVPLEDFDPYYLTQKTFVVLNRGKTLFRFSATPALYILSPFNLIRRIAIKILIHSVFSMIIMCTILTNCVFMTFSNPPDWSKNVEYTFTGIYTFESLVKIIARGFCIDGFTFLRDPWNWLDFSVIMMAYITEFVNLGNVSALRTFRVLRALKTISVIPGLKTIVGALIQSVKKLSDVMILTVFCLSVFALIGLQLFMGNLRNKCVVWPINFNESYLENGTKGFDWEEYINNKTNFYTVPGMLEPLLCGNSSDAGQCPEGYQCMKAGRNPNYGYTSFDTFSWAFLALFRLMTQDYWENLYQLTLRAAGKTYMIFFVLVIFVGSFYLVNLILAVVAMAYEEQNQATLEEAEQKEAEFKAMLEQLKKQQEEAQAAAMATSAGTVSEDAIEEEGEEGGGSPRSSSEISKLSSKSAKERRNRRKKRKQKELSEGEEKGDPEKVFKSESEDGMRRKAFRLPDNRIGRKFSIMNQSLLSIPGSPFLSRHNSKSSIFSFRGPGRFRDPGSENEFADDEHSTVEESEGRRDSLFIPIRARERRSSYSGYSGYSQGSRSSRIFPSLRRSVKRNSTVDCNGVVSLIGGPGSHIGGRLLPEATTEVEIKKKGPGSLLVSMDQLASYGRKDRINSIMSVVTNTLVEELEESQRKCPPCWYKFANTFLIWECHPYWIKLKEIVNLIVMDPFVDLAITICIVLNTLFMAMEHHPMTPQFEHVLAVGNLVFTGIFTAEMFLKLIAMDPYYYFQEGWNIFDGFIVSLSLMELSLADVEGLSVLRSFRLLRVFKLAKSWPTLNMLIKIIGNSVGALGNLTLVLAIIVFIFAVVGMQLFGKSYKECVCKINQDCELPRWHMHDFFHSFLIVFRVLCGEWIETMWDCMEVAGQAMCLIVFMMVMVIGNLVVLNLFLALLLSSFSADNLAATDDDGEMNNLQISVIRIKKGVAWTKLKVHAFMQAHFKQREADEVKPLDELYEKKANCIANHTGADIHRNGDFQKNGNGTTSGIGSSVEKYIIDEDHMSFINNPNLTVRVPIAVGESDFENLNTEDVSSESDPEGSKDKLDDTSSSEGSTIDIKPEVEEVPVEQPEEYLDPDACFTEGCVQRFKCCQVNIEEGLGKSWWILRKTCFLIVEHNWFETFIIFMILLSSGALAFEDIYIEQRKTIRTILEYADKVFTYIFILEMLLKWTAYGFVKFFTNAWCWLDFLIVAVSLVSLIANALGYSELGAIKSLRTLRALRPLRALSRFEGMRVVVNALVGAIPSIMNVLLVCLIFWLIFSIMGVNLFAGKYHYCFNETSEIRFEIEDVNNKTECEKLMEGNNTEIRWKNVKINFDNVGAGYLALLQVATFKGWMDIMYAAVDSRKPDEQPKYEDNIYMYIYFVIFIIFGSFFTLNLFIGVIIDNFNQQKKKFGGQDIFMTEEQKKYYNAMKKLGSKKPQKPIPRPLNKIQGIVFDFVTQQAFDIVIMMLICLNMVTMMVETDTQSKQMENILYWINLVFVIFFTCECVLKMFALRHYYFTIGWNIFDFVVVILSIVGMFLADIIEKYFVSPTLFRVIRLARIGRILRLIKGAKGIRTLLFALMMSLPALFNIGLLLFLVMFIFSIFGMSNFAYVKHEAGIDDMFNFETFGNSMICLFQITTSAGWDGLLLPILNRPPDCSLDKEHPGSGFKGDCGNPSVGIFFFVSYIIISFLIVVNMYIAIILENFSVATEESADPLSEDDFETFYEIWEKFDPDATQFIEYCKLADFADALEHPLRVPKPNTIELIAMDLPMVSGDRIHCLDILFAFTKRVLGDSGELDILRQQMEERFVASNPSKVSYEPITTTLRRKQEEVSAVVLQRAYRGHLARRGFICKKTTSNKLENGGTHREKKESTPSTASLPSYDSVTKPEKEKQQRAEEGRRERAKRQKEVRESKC
Assay: Modulation of late sodium current (INaL), PatchXpress electrophysiology
Type: cell-based
Settings: HEK293; 1 μM compound; HEK-293 cells expressing recombinant human Nav channel; late current evoked by 300 nM ATX-II; steady-state inhibition; read-out: INaL v1.6 (1 μM, % Inhibition)
Measurement Type: inhibition at 1 µM

Known results for molecules:
- O=c1oc2ccc(-c3ccc(OC(F)(F)F)cc3)cc2n1C[C@H]1CCCCO1 (single isomer, unassigned) [Compound 59]: 30 to 70%
- CCN(CC)C(=O)CCn1c(=O)oc2ccc(-c3ccc(OC(F)(F)F)cc3)cc21 [Compound 28]: > 70%
- O=C(CCn1c(=O)oc2ccc(-c3ccc(OC(F)(F)F)cc3)cc21)N1CCCC1 [Compound 26]: > 70%
- O=c1oc2ccc(-c3ccc(OC(F)(F)F)cc3)nc2n1C[C@H]1CCOC1 (single isomer, unassigned) [Compound 62]: > 70%
- O=c1oc2ccc(-c3ccc(OC(F)(F)F)cc3)cc2n1CCc1ccncn1 [Compound 147]: > 70%
- O=c1oc2ccc(-c3ccc(OC(F)(F)F)cc3)cc2n1C[C@@H]1CCCO1 [Compound 104]: > 70%
- O=c1oc2ccc(-c3ccc(OC(F)(F)F)cc3)cc2n1Cc1cncnc1 [Compound 84]: > 70%
- O=c1[nH]c2cc(-c3ccc(OC(F)(F)F)cc3)cnc2o1 [Compound 37]: 30 to 70%
- O=c1oc2ncc(-c3ccc(OC(F)(F)F)cc3)cc2n1CCc1ncccn1 [Compound 92]: < 30%
- CCn1c(=O)oc2ccc(-c3ccc(OC(F)(F)F)cc3)cc21 [Compound 11]: > 70%

Prompt line: Field request: inhibition at 1 µM | item: CS(=O)(=O)N1CCC[C@H]1Cn1c(=O)oc2ccc(-c3ccc(OC(F)(F)F)cc3)cc21 [Compound 113]
Response line: 30 to 70%

Prompt line: Quick one: inhibition at 1 µM for O=c1oc2ccc(-c3ccc(OC(F)(F)F)cc3)nc2n1CC(F)(F)F [Compound 33] ?
Response line: > 70%

Prompt line: Please look up its inhibition at 1 µM: O=C(O)CCn1c(=O)oc2ccc(-c3ccc(OC(F)(F)F)cc3)cc21 [Compound 24]
Response line: < 30%

Prompt line: # get_value(readout='inhibition at 1 µM', item= CCN(CC)C(=O)Cn1c(=O)oc2ccc(-c3ccc(OC(F)(F)F)cc3)cc21 [Compound 39] )
Response line: > 70%
